System: LXRb:RXRa (NR concentration 270 nM, RXRa partner concentration 90 nM)
assay.notes: PBM binding z-score (relative to random genomic background probes); higher = stronger binding; sequences stand for … in GC…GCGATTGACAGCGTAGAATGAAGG
recorded.endpoint: PBM binding z-score

**Q:** Looking for the measured PBM binding z-score of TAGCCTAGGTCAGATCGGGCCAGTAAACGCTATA , can you help?
**A:** 0.637

**Q:** If you can, please state the reported PBM binding z-score value of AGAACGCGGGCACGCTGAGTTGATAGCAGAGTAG .
**A:** -0.68

**Q:** Name the reported PBM binding z-score value associated with the sequence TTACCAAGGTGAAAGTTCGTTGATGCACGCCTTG
**A:** 1.35

**Q:** If you can, please state the reported PBM binding z-score value of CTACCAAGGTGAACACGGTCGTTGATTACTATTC .
**A:** 1.01

**Q:** Name the reported PBM binding z-score value associated with the sequence CCTAGTTGGTCAAGATCACACACGCTATAGGTAC
**A:** 0.468

**Q:** Tell me the measured PBM binding z-score of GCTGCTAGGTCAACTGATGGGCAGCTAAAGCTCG , please.
**A:** 1.48
